B1: Pistol ribozyme (parent)
chain: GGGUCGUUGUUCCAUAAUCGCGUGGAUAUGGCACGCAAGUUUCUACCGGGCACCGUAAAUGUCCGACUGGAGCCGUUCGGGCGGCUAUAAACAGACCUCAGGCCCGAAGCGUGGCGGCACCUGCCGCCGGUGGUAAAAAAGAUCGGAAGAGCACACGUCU

Variants of: B1
PROTOCOL TEXT: aptazyme ON/OFF ratio, guanine; higher = stronger switching; co-transcriptional cleavage with and without guanine
MEASURED QUANTITY: aptazyme ON/OFF ratio
Give bare numbers.

U7C U8A U10G C12A C13A | 1.2
U8C G9U U10C U11A C12G | 1.17
U7C U10A U11C C12G | 1.25
U7A U8C U11G C12U C13G | 1.06
U7C G9A U10G U11A C13G | 1.04
U7G U8C G9A U10C C12U C13A | 1.15
U7G G9C U11C C12G C13G | 1.07
U7A U8C G9U U10G U11G C12U C13U | 1.16
U7C U10A C12U C13G | 1.14
U7C U8G G9C U10A | 1.28

// input: 6 variants below; output: aptazyme ON/OFF ratio for each
1. U7G U8A G9U U10G C13G
2. U7G U8A U11C C12G C13G
3. U7A U8C G9U U11C C12U C13G
4. U7G U8A U10A U11A C12U C13G
5. U8A G9U U10C U11A C12G C13U
6. U7A G9U U10A U11C C12G

Output:
1.19
1.2
1.04
1.29
1.14
1.25

// input: 4 variants below; output: aptazyme ON/OFF ratio for each
1. U7A U8G G9A U10A U11A C12U C13U
2. U7G U10C U11C C12A C13A
3. U7G G9U U10A C12A C13A
4. U7G U8A U10A U11C C12G

Output:
1.07
1.08
1.38
1.26

Hello, the source for this data is the RNAGym collection of RNA variant scans (doi:10.1021/acssynbio.7b00057), in case you need it.
